These entries and their values trace back to the supplement of paper PMC6555819.

# Test system: PPARg:RXRa 90nM:30nM, anti-RXR (NR concentration 90 nM, RXRa partner concentration 30 nM)
# test-description: PBM binding z-score (relative to random genomic background probes); higher = stronger binding; sequences stand for … in GC…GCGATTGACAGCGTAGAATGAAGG
measured-attribute: PBM binding z-score
I'd appreciate a reply containing only the number, no unit.

CTGAGTAGGTTATGGGGCATTCAGGCAACGGTGA : 5.01
CGAACTAGGTCATCCAGGACAGTAAATACATTGA : 5.68
TAGTCTAGGTCATGGGCCAGTATACCACGCGAAC : 6
CGTCCAAGGTCATAGGAGGTCAGCGAAGACAGAT : 4.9
GGGACGAGGGCAAGTTGATAGCAGAGTTTGATGG : 0.913
CAAACTTGGTCACCGGAAGGTCAAAGTCCGCATG : 2.01
TTATCAAGGTGAGCTGAGGTCGTTGATCCAACTC : 0.566
TTGCCAAGGTGAAGGTCGTTGATCCCTCTGTAGA : 1.41
TCATATAGGTAAACGGTGAAAGTCGGTGTGGTAA : 4.57
GGAACGAGGGCCTTCGAGTTGATAGCATGGCGAT : -0.758

Missing value: PBM binding z-score, PPARg:RXRa 90nM:30nM, anti-RXR (NR concentration 90 nM, RXRa partner concentration 30 nM), entry `AGTCAAGGTTCATCTAGGTAACGTAAGATATGCT` . Fill in?
2.98

Missing value: PBM binding z-score, PPARg:RXRa 90nM:30nM, anti-RXR (NR concentration 90 nM, RXRa partner concentration 30 nM), entry `CCTTACGGTTCAAGGTTATAGCACGGGTGGTACG` . Fill in?
0.767

Missing value: PBM binding z-score, PPARg:RXRa 90nM:30nM, anti-RXR (NR concentration 90 nM, RXRa partner concentration 30 nM), entry `GATACAGGGTCAGCTAGAGGCCAGAGTGTGGAAA` . Fill in?
2.07

Missing value: PBM binding z-score, PPARg:RXRa 90nM:30nM, anti-RXR (NR concentration 90 nM, RXRa partner concentration 30 nM), entry `CCGACTGGGCCACGAAAGGTCATTGATTCAGTGA` . Fill in?
3.16

Missing value: PBM binding z-score, PPARg:RXRa 90nM:30nM, anti-RXR (NR concentration 90 nM, RXRa partner concentration 30 nM), entry `TGAATGAGGTTAAAGATCCGGGAACGTGGCGTCG` . Fill in?
2.9

Missing value: PBM binding z-score, PPARg:RXRa 90nM:30nM, anti-RXR (NR concentration 90 nM, RXRa partner concentration 30 nM), entry `TCATATAGGTAAACAGGTGAGAGTCCGTAAGTTA` . Fill in?
3.41

Missing value: PBM binding z-score, PPARg:RXRa 90nM:30nM, anti-RXR (NR concentration 90 nM, RXRa partner concentration 30 nM), entry `ATCGAAAGGTCGTGAGGTGAGTAGACAGAAAGGC` . Fill in?
3.08

Missing value: PBM binding z-score, PPARg:RXRa 90nM:30nM, anti-RXR (NR concentration 90 nM, RXRa partner concentration 30 nM), entry `CCGAGTGGGGCAGAAAGGTTACCATACCATCCGG` . Fill in?
2.3

Missing value: PBM binding z-score, PPARg:RXRa 90nM:30nM, anti-RXR (NR concentration 90 nM, RXRa partner concentration 30 nM), entry `TCGGCTAGGTCAGTTGGTCAGCTAACGAGCTGCC` . Fill in?
1.11

Missing value: PBM binding z-score, PPARg:RXRa 90nM:30nM, anti-RXR (NR concentration 90 nM, RXRa partner concentration 30 nM), entry `CAAAGTAGGTCACAGAGGTCAAAGTCCGTGCGTA` . Fill in?
8.58

Missing value: PBM binding z-score, PPARg:RXRa 90nM:30nM, anti-RXR (NR concentration 90 nM, RXRa partner concentration 30 nM), entry `ATCGCAAGGTCGTGAGGTGAGTATACAGAAAGGC` . Fill in?
0.863

Missing value: PBM binding z-score, PPARg:RXRa 90nM:30nM, anti-RXR (NR concentration 90 nM, RXRa partner concentration 30 nM), entry `CCAGACAGGTGAAAAGGTAACTCAGCCTCGATTA` . Fill in?
1.77

Missing value: PBM binding z-score, PPARg:RXRa 90nM:30nM, anti-RXR (NR concentration 90 nM, RXRa partner concentration 30 nM), entry `CGAACGAGGGCATTAGTTGATAGCAAATGCCGAT` . Fill in?
-0.0505

Missing value: PBM binding z-score, PPARg:RXRa 90nM:30nM, anti-RXR (NR concentration 90 nM, RXRa partner concentration 30 nM), entry `TAGCCTAGGTCATTCAGGGGCCAGTCTAGAAAGC` . Fill in?
1.15

Missing value: PBM binding z-score, PPARg:RXRa 90nM:30nM, anti-RXR (NR concentration 90 nM, RXRa partner concentration 30 nM), entry `ATTGAAAGGTCGACGAGGTGAGTATACACCGTTT` . Fill in?
2.5

Missing value: PBM binding z-score, PPARg:RXRa 90nM:30nM, anti-RXR (NR concentration 90 nM, RXRa partner concentration 30 nM), entry `GCTATTAGTTGAAAGGGTAACCGAATGATTCTCG` . Fill in?
3.03

Missing value: PBM binding z-score, PPARg:RXRa 90nM:30nM, anti-RXR (NR concentration 90 nM, RXRa partner concentration 30 nM), entry `CAAATTAGGTCAAGGTCAAAGTCGGTTTGTGCCA` . Fill in?
8.31

Missing value: PBM binding z-score, PPARg:RXRa 90nM:30nM, anti-RXR (NR concentration 90 nM, RXRa partner concentration 30 nM), entry `ATCGAAGGGTCGAGGTGAGTATAGAGAAAGGGAA` . Fill in?
0.905

Missing value: PBM binding z-score, PPARg:RXRa 90nM:30nM, anti-RXR (NR concentration 90 nM, RXRa partner concentration 30 nM), entry `TAGCCTAGGTCACTGGGCCAGTATAGTACGCATC` . Fill in?
3.41

Missing value: PBM binding z-score, PPARg:RXRa 90nM:30nM, anti-RXR (NR concentration 90 nM, RXRa partner concentration 30 nM), entry `CGAACTAGGTCGGAACAGGACAGTGAAGGATGAT` . Fill in?
0.234
